Origin of the recorded values: patent US11834472B2

# subjectOfTest: T1, mouse IL-22 (Mus musculus, UniProt Q9JJY9)
# T1 sequence (Q9JJY9 34-179): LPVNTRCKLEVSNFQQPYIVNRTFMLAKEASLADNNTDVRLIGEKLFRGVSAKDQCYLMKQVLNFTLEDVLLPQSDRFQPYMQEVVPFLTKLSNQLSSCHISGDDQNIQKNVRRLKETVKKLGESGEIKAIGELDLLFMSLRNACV
# measurementDescription: SPR capture assay, affinity to mouse IL-22
# Type: binding
# particulars: mouse IL-22, SPR
recordedMetric: kd (s⁻¹)
// units = s⁻¹; emit number, no label

Use the examples below as a reference point.
molecule | kd, s⁻¹
CPS02: mutant anti-IL-22 antibody binding human and mouse IL-22; light chain LC-06, heavy chain HC-08 (antibody, V domains shown) VH: QVQLVQSGAEVKKPGASVKVSCKASGYIFRSYWIHWIRQPPGKGLEWIGRIYPGTGRTYYNEKFKGRVTISADKSISTAYLQWSSLKASDTAMYYCARSYDSSVAYWGQGTLVTVSS VL: AIQLTQSPSSLSASVGDRVTITCSASSSVSYMHWYLQKPGQSPQLLIYKTRKLASGVPSRFSGSGSGTDFTFTISSLEAEDAATYYCQQWSSNPYITFGQGTKVEIKR | 0.000545
CPS14 (antibody, V domains shown) VH: QVQLVQSGAEVKKPGASVKVSCKASGYIFTSYWIHWIRQPPGKGLEWIGRIYPGTGRTYYNRKFKGRVTISADKSISTAYLQWSSLKASDTAMYYCARSYDYSVAYWGQGTLVTVSS VL: AIQLTQSPSSLSASVGDRVTITCSASSSVSYMHWYLQKPGQSPQLLIYETRKLASGVPSRFSGSGSGTDFTFTISSLEAEDAATYYCQQWSSNPYITFGQGTKVEIKR | 0.00123
CPS17: mutant anti-IL-22 antibody binding human and mouse IL-22; light chain LC-04, heavy chain HC-49 (antibody, V domains shown) VH: QVQLVQSGAEVKKPGASVKVSCKASGYIFRSYWIHWIRQPPGKGLEWIGRIYPGTGNTYYNRKFKGRVTISADKSISTAYLQWSSLKASDTAMYYCARSYMYSVAYWGQGTLVTVSS VL: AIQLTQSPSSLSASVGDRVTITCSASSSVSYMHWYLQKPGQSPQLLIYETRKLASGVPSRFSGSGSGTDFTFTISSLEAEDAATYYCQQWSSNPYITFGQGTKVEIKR | 0.00158

Then there is this molecule:
Exercise: Consider the molecule LC-E049K: one of the mutant antibodies in the CPE library, used as a control (antibody, V domains shown) VH: QVQLVQSGAEVKKPGASVKVSCKASGYIFTSYWIHWIRQPPGKGLEWIGRIYPGTGNTYYNEKFKGRVTISADKSISTAYLQWSSLKASDTAMYYCARSYDSSCAYWGQGTLVTVSS VL: AIQLTQSPSSLSASVGDRVTITCSASSSVSYMHWYLQKPGQSPQLLIYKTSKLASGVPSRFSGSGSGTDFTFTISSLEAEDAATYYCQQWSSNPYITFGQGTKVEIKR and give its recorded kd.
Key: 0.00137
